For each record, write down the corresponding remaining activity at 1 µM.
- tgt: DβH (Homo sapiens, UniProt P09172)
- Construct: reaction mixture (total volume 500 μl) contained: cellular homogenate (75 μg total protein); host or cells: SK-N-SH cell homogenate
- procedureSummary: DβH inhibition cell assay (SK-N-SH cellular homogenates, tyramine to octopamine)
- Assay type: biochemical
- appliedConditions: inhibitor 1 μM; SK-N-SH cell homogenate; read-out: DβH activity in % of Ctrl (1 μM)
- Procedure: The ability of a compound to inhibit DβH activity may be assessed using the following cell assay. […] . […] Fetal bovine serum was removed from cells for 4 h prior to collection. For the preparation of cellular homogenates, media was removed and cell monolayers were washed with 50 mM Tris-HCl pH 7.4. […] Total protein was quantified in cellular homogenates with BioRad Protein Assay (BioRad) using a standard curve of BSA (50-250 μg/mL). […]
// return numeric value only (unit: %, not printed)

input: Query remaining activity at 1 µM on DβH (Homo sapiens, UniProt P09172) for Cc1[nH]c(=S)n2c1[C@@H]1C[C@]1(c1c(F)ccc(Br)c1F)C2
output: 0

input: What do we get for Cn1cc2n(c1=S)C[C@@H](c1c(F)c(F)cc(F)c1F)C2 ?
output: 15.2

input: Then Fc1ccc(Br)c(F)c1[C@@H]1Cc2c[nH]c(=S)n2C1 ?
output: 0

input: Here is the next compound: NC(=S)N1C[C@H]2C[C@@]2(c2cc(F)cc(F)c2)C1
output: 34.3

input: Do the same for Fc1cccc(F)c1[C@@H]1Cc2c[nH]c(=S)n2C1 please
output: 41.9

input: Next: Fc1ccc(F)c([C@]23C[C@H]2c2c[nH]c(=S)n2C3)c1F
output: 5.1

input: Please do the same for Fc1cc(F)c(F)c([C@H]2CC3CNC(=S)N3C2)c1F (stereo partly drawn) as well.
output: 48.3

input: Let us now turn to NC(=S)N1CCC(C2CCCCC2)C1 (stereo not drawn) [Example 9, 3-cyclohexylpyrrolidine-1-carbothioamide]
output: 30.9

input: Then this compound: Fc1cc(F)cc([C@]23C[C@H]2c2n[nH]c(=S)n2C3)c1
output: 60.2

input: Same lookup for NC(=S)N1CCC(c2cc(F)ccc2F)C1 (stereo not drawn) , please.
output: 6.4

input: Entry Fc1ccc(Cl)c(F)c1[C@]12C[C@H]1c1n[nH]c(=S)n1C2 please
output: 6.2

input: Field entry: N#CCNC(=S)N1CC2CC2(c2cc(F)ccc2F)C1 (stereo not drawn)
output: 45.3

input: Now give it for Cc1[nH]c(=S)n2c1[C@@H]1C[C@]1(c1cc(F)ccc1F)C2 too.
output: 10.9

input: Record: Fc1ccc(F)c(C23CC2c2c[nH]c(=S)n2C3)c1 (stereo not drawn)
output: 0.4

input: Okay, and S=C1NCC2CC(c3ccccc3)CN12 (stereo not drawn) ?
output: 70.9

input: Another compound to check: Cc1[nH]c(=S)n2c1C[C@@H](c1c(F)cccc1F)C2
output: 39.9

input: Now try C[C@@H]1c2c[nH]c(=S)n2C[C@H]1c1c(F)c(F)cc(F)c1F .
output: 54.7

input: Then what about the compound C[C@H]1c2c[nH]c(=S)n2C[C@H]1c1c(F)c(F)cc(F)c1F ?
output: 38.8

input: Another compound to check: Fc1cc(F)c(F)c([C@@H]2Cc3c[nH]c(=S)n3C2)c1
output: 20

input: Then this compound: NC(=S)N1CC[C@@H](c2ccccc2)C1 [Example 6, (S)-3-phenylpyrrolidine-1-carbothioamide]
output: 50.3

input: Field entry: Fc1cccc(F)c1[C@]12C[C@H]1c1c[nH]c(=S)n1C2
output: 7.2

input: Now the same for Fc1cc(F)c(F)c([C@]23C[C@H]2c2c[nH]c(=S)n2C3)c1
output: 13.9

input: Queued: Fc1ccc([C@]23C[C@H]2c2c[nH]c(=S)n2C3)c(F)c1
output: 35.7

input: Another compound: NC(=S)N1CCC(c2ccccc2)C1 (stereo not drawn) [Example 1, 3-Phenylpyrrolidine-1-carbothioamide]
output: 42.4

input: Similarly, Fc1ccc(Br)cc1[C@]12C[C@H]1c1n[nH]c(=S)n1C2 ?
output: 21.8

input: // query: NC(=S)N1CC[C@@H](c2cc(F)cc(F)c2)C1
output: 6.7

input: Please do the same for NC(=S)N1CCC(c2ccsc2)C1 (stereo not drawn) as well.
output: 9.3

input: Moving on to the next compound: CNC(=S)N1CCC(c2cc(F)cc(F)c2)C1 (stereo not drawn)
output: 4.7

input: And Fc1ccc(Cl)c([C@]23C[C@H]2c2c[nH]c(=S)n2C3)c1 ?
output: 18.1

input: Query Cc1[nH]c(=S)n2c1[C@@H]1C[C@]1(c1cc(Cl)ccc1F)C2 next
output: 1

input: Record: [2H]C1([2H])n2c(c[nH]c2=S)[C@@H]2C[C@@]21c1cc(Cl)ccc1F
output: 0

input: Follow-up entry: NC(=S)N1CC[C@H](c2ccccc2)C1 [Example 11, (R)-3-phenylpyrrolidine-1-carbothioamide]
output: 31.4

input: Can you check NC(=S)N1CCC(c2ccco2)C1 (stereo not drawn) next?
output: 56.8

* * *

- tgt: DβH (Homo sapiens)
- Construct: reaction mixture (total volume 500 μl) contained: cellular homogenate (75 μg total protein); host or cells: SK-N-SH cell homogenate
- procedureSummary: DβH inhibition cell assay (SK-N-SH cellular homogenates, tyramine to octopamine)
- Assay type: biochemical
- appliedConditions: inhibitor 0.1 μM; SK-N-SH cell homogenate; read-out: DβH activity in % of Ctrl (0.1 μM)
quantityName: remaining activity at 0.1 µM (%)
Field: numeric (%). Do not append units.

input: What value of remaining activity at 0.1 µM on DβH (Homo sapiens) does CNC(=S)N1CCC(c2c(F)c(F)cc(F)c2F)C1 (stereo not drawn) have?
output: 11.8

input: Again, but for NC(=S)N1CC2CC2(c2cc(F)ccc2F)C1 (stereo not drawn)
output: 3.3

input: Again, but for Fc1cc(F)c(F)c([C@H]2Cc3c[nH]c(=S)n3C2)c1
output: 84

* * *

Give measured remaining activity at 1 µM for each item. Keep answers brief.
- tgt: DβH (Homo sapiens, UniProt P09172)
- Construct: reaction mixture (total volume 500 μl) contained: cellular homogenate (75 μg total protein); host or cells: SK-N-SH cell homogenate
- Sequence (P09172 1-617): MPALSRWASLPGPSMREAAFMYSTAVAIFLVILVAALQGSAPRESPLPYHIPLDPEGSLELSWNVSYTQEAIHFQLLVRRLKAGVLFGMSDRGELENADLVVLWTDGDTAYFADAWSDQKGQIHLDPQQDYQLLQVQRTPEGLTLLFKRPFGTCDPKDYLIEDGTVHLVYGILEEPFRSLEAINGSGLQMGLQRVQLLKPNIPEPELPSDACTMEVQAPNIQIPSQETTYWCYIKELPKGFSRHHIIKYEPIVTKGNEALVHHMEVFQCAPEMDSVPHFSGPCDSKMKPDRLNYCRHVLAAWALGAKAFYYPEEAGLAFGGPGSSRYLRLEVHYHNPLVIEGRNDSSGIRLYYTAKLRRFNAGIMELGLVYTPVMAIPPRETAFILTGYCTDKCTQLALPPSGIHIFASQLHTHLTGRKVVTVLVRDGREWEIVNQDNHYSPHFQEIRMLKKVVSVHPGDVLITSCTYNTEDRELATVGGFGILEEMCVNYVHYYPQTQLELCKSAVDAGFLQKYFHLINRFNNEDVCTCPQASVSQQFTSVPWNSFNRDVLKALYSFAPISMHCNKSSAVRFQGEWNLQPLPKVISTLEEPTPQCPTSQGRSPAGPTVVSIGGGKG
- procedureSummary: DβH inhibition cell assay (SK-N-SH cellular homogenates, tyramine to octopamine)
- Format: biochemical
- appliedConditions: inhibitor 1 μM; SK-N-SH cell homogenate; read-out: DβH activity in % of Ctrl (1 μM)
The figure you give is taken to be in %; do not add the unit.

input: Give the measured remaining activity at 1 µM of S=c1[nH]cc2n1CC(C1CCCCC1)C2 (stereo not shown) .
output: 59.4

input: Can you handle Cn1cc2n(c1=S)C[C@@]1(c3cc(Cl)ccc3F)C[C@@H]21 next?
output: 0

input: What about this compound? NC(=S)N1CC2CC2(c2ccccc2)C1 (stereo not shown)
output: 14.5

input: Would you mind doing Cc1[nH]c(=S)n2c1C[C@@H](c1c(F)ccc(Cl)c1F)C2 as well?
output: 0

input: Next: Cc1[nH]c(=S)n2c1C[C@@H](c1c(F)c(F)cc(F)c1F)C2
output: 7.9

input: Let us now turn to Fc1ccc(Cl)cc1[C@]12C[C@H]1c1c[nH]c(=S)n1C2
output: 1.8

input: How about this compound: CCCNC(=S)N1C[C@@H]2C[C@]2(c2cc(F)cc(F)c2)C1
output: 0.3

input: Next compound up: NC(=S)N1CCC(c2ccc(F)cc2)C1 (stereo not shown)
output: 53.8

input: Now consider CN(C)C(=S)N1CC2CC2(c2cc(F)cc(F)c2)C1 (stereo not shown) and answer again.
output: 31.6

input: // query: Fc1ccc(F)c(C2Cc3c[nH]c(=S)n3C2)c1 (stereo not shown)
output: 27.3

input: Entry to check: Fc1cc(F)c([C@]23C[C@H]2c2c[nH]c(=S)n2C3)cc1F
output: 35

input: Same lookup for Fc1ccc(Br)c(F)c1[C@]12C[C@H]1c1n[nH]c(=S)n1C2 , please.
output: 4.5

input: Can you check NC(=S)N1C[C@H]2C[C@@]2(c2cccs2)C1 next?
output: 20.8
